Each entry below carries its reported PBM binding z-score.
test system: LXRa:RXRa (NR concentration 270 nM, RXRa partner concentration 90 nM); test: PBM binding z-score (relative to random genomic background probes); higher = stronger binding; sequences stand for … in GC…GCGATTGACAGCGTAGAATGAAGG
experimental.readout: PBM binding z-score

[
  {
    "seq.text": "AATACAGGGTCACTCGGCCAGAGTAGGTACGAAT",
    "experimental.readout": "PBM binding z-score",
    "result": 5.13
  },
  {
    "seq.text": "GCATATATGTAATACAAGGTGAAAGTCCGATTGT",
    "experimental.readout": "PBM binding z-score",
    "result": 0.403
  },
  {
    "seq.text": "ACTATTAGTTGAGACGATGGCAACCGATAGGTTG",
    "experimental.readout": "PBM binding z-score",
    "result": -0.267
  },
  {
    "seq.text": "ACTTACGGGTGAACGAGGTTATAGCACGCGTATA",
    "experimental.readout": "PBM binding z-score",
    "result": 1.28
  },
  {
    "seq.text": "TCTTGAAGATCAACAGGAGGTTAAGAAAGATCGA",
    "experimental.readout": "PBM binding z-score",
    "result": 1.27
  },
  {
    "seq.text": "GGTACAGGGTCAGCTAGAGGCCAGAGTATGGAAA",
    "experimental.readout": "PBM binding z-score",
    "result": 2.87
  },
  {
    "seq.text": "GGAACGAGGGTAAAGTTGATAGCATCTGTCGACG",
    "experimental.readout": "PBM binding z-score",
    "result": 0.494
  },
  {
    "seq.text": "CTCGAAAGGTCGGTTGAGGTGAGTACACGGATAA",
    "experimental.readout": "PBM binding z-score",
    "result": 1.85
  },
  {
    "seq.text": "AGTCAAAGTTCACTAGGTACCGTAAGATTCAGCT",
    "experimental.readout": "PBM binding z-score",
    "result": 5.23
  },
  {
    "seq.text": "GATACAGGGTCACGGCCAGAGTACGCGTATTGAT",
    "experimental.readout": "PBM binding z-score",
    "result": 5.1
  },
  {
    "seq.text": "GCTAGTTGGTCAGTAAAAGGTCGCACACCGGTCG",
    "experimental.readout": "PBM binding z-score",
    "result": 1.35
  },
  {
    "seq.text": "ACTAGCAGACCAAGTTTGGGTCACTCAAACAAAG",
    "experimental.readout": "PBM binding z-score",
    "result": -0.0494
  }
]

* * *

tested on: RXRa DBDmut IVT, anti-RXR (DBD mutation: RXRa K156A/R161A, NR concentration 90 nM); assay: PBM binding z-score (relative to random genomic background probes); higher = stronger binding; sequences stand for … in GC…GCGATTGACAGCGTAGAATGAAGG
Each entry below carries its reported PBM binding z-score.
experimental.readout: PBM binding z-score

[
  {
    "seq.text": "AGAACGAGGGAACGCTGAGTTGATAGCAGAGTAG",
    "experimental.readout": "PBM binding z-score",
    "numeric.result": -0.477
  },
  {
    "seq.text": "TCTTGTAGATCAGCAGGTTAGGAAAGCTGGCCAA",
    "experimental.readout": "PBM binding z-score",
    "numeric.result": 0.591
  },
  {
    "seq.text": "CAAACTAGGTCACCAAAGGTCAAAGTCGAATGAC",
    "experimental.readout": "PBM binding z-score",
    "numeric.result": 2.57
  },
  {
    "seq.text": "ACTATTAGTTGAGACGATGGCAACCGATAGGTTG",
    "experimental.readout": "PBM binding z-score",
    "numeric.result": 0.0509
  },
  {
    "seq.text": "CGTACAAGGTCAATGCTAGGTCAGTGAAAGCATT",
    "experimental.readout": "PBM binding z-score",
    "numeric.result": 3.82
  },
  {
    "seq.text": "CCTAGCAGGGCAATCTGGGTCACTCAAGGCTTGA",
    "experimental.readout": "PBM binding z-score",
    "numeric.result": 0.252
  },
  {
    "seq.text": "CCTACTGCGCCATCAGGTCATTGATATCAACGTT",
    "experimental.readout": "PBM binding z-score",
    "numeric.result": 1.5
  },
  {
    "seq.text": "TCGAGTAGGTTAGTCCGGGCATTCAGCCAACATA",
    "experimental.readout": "PBM binding z-score",
    "numeric.result": 0.0956
  },
  {
    "seq.text": "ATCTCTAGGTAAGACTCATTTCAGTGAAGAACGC",
    "experimental.readout": "PBM binding z-score",
    "numeric.result": 0.594
  },
  {
    "seq.text": "GGAACGAGGGCATTCGAGTGGATAGCATGGCGAT",
    "experimental.readout": "PBM binding z-score",
    "numeric.result": 2.83
  },
  {
    "seq.text": "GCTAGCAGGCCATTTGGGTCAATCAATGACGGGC",
    "experimental.readout": "PBM binding z-score",
    "numeric.result": 0.0646
  },
  {
    "seq.text": "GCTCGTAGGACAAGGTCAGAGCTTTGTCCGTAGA",
    "experimental.readout": "PBM binding z-score",
    "numeric.result": 0.281
  }
]

* * *

system: FXR:RXRa (NR concentration 270 nM, RXRa partner concentration 90 nM); assay: PBM binding z-score (relative to random genomic background probes); higher = stronger binding; sequences stand for … in GC…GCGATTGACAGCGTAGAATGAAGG
Respond with true for PBM binding z-score values of 0.6 and above, false for values below.

[
  {
    "seq.text": "ATCGAAAGGTCGACGAGGCGAGTATACACCGTTT",
    "group.label": "true"
  },
  {
    "seq.text": "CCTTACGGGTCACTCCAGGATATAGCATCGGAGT",
    "group.label": "true"
  },
  {
    "seq.text": "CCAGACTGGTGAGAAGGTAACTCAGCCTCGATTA",
    "group.label": "false"
  },
  {
    "seq.text": "TCATATAGGTAAATGCTAGGTGAACGTCCGATCT",
    "group.label": "false"
  },
  {
    "seq.text": "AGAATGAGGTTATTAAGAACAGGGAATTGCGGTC",
    "group.label": "true"
  },
  {
    "seq.text": "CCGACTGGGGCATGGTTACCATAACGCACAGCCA",
    "group.label": "false"
  },
  {
    "seq.text": "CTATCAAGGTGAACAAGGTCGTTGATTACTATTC",
    "group.label": "true"
  },
  {
    "seq.text": "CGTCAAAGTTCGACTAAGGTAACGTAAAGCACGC",
    "group.label": "true"
  },
  {
    "seq.text": "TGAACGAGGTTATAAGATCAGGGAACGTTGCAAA",
    "group.label": "true"
  },
  {
    "seq.text": "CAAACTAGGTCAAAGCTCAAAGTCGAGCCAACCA",
    "group.label": "true"
  },
  {
    "seq.text": "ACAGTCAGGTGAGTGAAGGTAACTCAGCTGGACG",
    "group.label": "false"
  },
  {
    "seq.text": "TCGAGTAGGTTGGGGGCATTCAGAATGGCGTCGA",
    "group.label": "true"
  },
  {
    "seq.text": "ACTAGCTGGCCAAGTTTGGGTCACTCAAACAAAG",
    "group.label": "false"
  },
  {
    "seq.text": "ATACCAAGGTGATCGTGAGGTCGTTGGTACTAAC",
    "group.label": "true"
  },
  {
    "seq.text": "ATCTCTAGGTAAGAGTCAGTTCAGTGAAGAACGC",
    "group.label": "false"
  },
  {
    "seq.text": "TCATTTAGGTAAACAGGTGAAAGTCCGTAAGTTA",
    "group.label": "true"
  },
  {
    "seq.text": "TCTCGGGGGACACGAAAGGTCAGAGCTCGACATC",
    "group.label": "true"
  },
  {
    "seq.text": "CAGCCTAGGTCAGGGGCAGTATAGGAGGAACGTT",
    "group.label": "true"
  },
  {
    "seq.text": "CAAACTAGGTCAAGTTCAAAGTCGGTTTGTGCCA",
    "group.label": "true"
  },
  {
    "seq.text": "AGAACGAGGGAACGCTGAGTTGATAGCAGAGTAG",
    "group.label": "false"
  },
  {
    "seq.text": "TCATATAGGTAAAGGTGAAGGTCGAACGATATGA",
    "group.label": "true"
  },
  {
    "seq.text": "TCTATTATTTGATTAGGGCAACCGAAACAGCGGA",
    "group.label": "true"
  },
  {
    "seq.text": "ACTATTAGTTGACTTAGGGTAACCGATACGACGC",
    "group.label": "true"
  },
  {
    "seq.text": "AGTCAAAGTTCTGGACGAGGTAACGTAAAGCACG",
    "group.label": "false"
  },
  {
    "seq.text": "CCTTACGGATCACGAGGTTATAGCACGACGAGCG",
    "group.label": "true"
  }
]
